Plant response rating, Waterhemp for assorted compounds
- System: waterhemp (common waterhemp, Amaranthus rudis)
- PROCEDURE_TEXT: Test C greenhouse herbicide test, pre- and postemergence
- Type: in vivo
- CONDITION_LABEL: Preemergence, 62 g ai/ha; scale 0 to 100, 0 is no effect, 100 is complete control

COMPOUND | Plant response rating, Waterhemp
CCC(=O)Oc1c(C)nn(C)c(=O)c1-c1c(C)sc2c(C)cc(C)cc12 [Compound 28] | 75
CC(=O)Oc1c(Br)nn(C)c(=O)c1-c1c(C)ccc2ccccc12 [Compound 129] | 95
CSCC(=O)Oc1c(C)nn(C)c(=O)c1-c1cccc2ccccc12 [Compound 171] | 95
CCCC(=O)Oc1c(C)nn(C)c(=O)c1-c1c(C)sc2c(C)cc(C)cc12 [Compound 106] | 75
CC(=O)Oc1c(C)nn(C)c(=O)c1-c1ccc(F)c2ccccc12 [Compound 90] | 90

====

Pigweed plant response rating for assorted compounds
- System: pigweed (Amaranthus retroflexus)
- PROCEDURE_TEXT: Test A greenhouse herbicide test, pre- and postemergence
- Format: in vivo
- CONDITION_LABEL: Preemergence, 125 g ai/ha; 0 to 100 scale where 0 is no effect and 100 is complete control

COMPOUND | SUBJECT_OF_TEST | Pigweed plant response rating
COc1ccc2ccccc2c1-c1c(O)c(C)nn(C)c1=O [Compound 40] | pigweed (Amaranthus retroflexus) | 90
COC(=O)Oc1c(C)nn(C)c(=O)c1-c1c(C)sc2c(C)cc(C)cc12 [Compound 81] | pigweed (Amaranthus retroflexus) | 100
COc1nn(C)c(=O)c(-c2cccc3ccccc23)c1O [Compound 55] | pigweed (Amaranthus retroflexus) | 70
CC(=O)Oc1c(C#N)nn(C)c(=O)c1-c1c(C)ccc2ccccc12 [Compound 98] | pigweed (Amaranthus retroflexus) | 100
CCOC(=O)Oc1c(C)nn(C)c(=O)c1-c1c(C)sc2ccc(C)cc12 [Compound 82] | pigweed (Amaranthus retroflexus) | 100

====

Plant response rating, Crabgrass, Large for assorted compounds
- Tested on: crabgrass, large (large crabgrass, Digitaria sanguinalis)
- PROCEDURE_TEXT: Test C greenhouse herbicide test, pre- and postemergence
- Type: in vivo
- CONDITION_LABEL: Postemergence, 125 g ai/ha; scale 0 to 100, 0 is no effect, 100 is complete control

GIVEN_SMILES | SUBJECT_OF_TEST | Plant response rating, Crabgrass, Large
CCCC(=O)Oc1c(C)nn(C)c(=O)c1-c1c(C)sc2c(C)cc(C)cc12 | crabgrass, large (large crabgrass, Digitaria sanguinalis) | 30
CCC(=O)Oc1c(Cl)nn(C)c(=O)c1-c1c(C)sc2ccc(Cl)cc12 | crabgrass, large (large crabgrass, Digitaria sanguinalis) | 25
CC(=O)Oc1c(C)nn(C)c(=O)c1-c1c(C)oc2ccc(C)cc12 | crabgrass, large (large crabgrass, Digitaria sanguinalis) | 30
CCOC(=O)Oc1c(C)nn(C)c(=O)c1-c1c(C)ccc2ccccc12 | crabgrass, large (large crabgrass, Digitaria sanguinalis) | 60
CC(=O)Oc1c(C)nn(C)c(=O)c1-c1c(C)sc2ccc(C)cc12 | crabgrass, large (large crabgrass, Digitaria sanguinalis) | 20
Cc1cc(C)c2sc(C)c(-c3c(OC(=O)OC(C)C)c(C)nn(C)c3=O)c2c1 | crabgrass, large (large crabgrass, Digitaria sanguinalis) | 35
Cc1ccc2ccccc2c1-c1c(O)c(C)nn(C)c1=O | crabgrass, large (large crabgrass, Digitaria sanguinalis) | 25
COc1nn(C)c(=O)c(-c2c(C)ccc3ccccc23)c1O | crabgrass, large (large crabgrass, Digitaria sanguinalis) | 35
Cc1ccc2ccc(C)c(-c3c(O)c(C)nn(C)c3=O)c2c1 | crabgrass, large (large crabgrass, Digitaria sanguinalis) | 50
